Values from ChEMBL document CHEMBL1201862

System: IGROV-1
assay_summary: NCI tumour cell line growth inhibition, 48 h
The source made the active and inactive calls. No stated cut-off is given here; in the data, active = GI50 up to about 1.1 µM and inactive = higher.
Hi! Could you answer with just one of these? 1 (yes) (active), 0 (no) (inactive)

{"compound": "COc1ccc(S(=O)(=O)NNS(C)(=O)=O)cc1", "qualitative_label": "0 (no)"}

Prompt: Which outcome did this test record for the compound O=C(O)CNCc1c2ccccc2nc2ccccc12 ?
Response: 0 (no)

Prompt: How about Cc1ccc(S(=O)(=O)n2c3ccc(Br)cc3c3nc4ccccc4nc32)cc1 ?
Response: 1 (yes)

Prompt: Input CCOc1ccc(/N=C/c2cccc3cccnc23)cc1
Response: 0 (no)

###

Tested on: HCC 2998
assay_summary: NCI tumour cell line growth inhibition, 48 h
Activity calls are given as the source filed them. Rule as the data show it: active = GI50 up to about 1.1 µM and inactive = higher.
Recorded GI50 by entry

Answered examples (3):
{"molecule": "c1ccc2c(c1)n1nnnc1c1nnnn21", "outcome_measure": "GI50", "observed_measurement": "> 100 µM (inactive)"}
{"molecule": "O=C(O)CCCCC1CCSS1 (stereo not given)", "outcome_measure": "GI50", "observed_measurement": "72.6 µM (inactive)"}
{"molecule": "COc1ccc(C2=C(Cl)c3cc(OC)c(OC)cc3C2OC)cc1OC (stereo not given)", "outcome_measure": "GI50", "observed_measurement": "> 100 µM (inactive)"}

Prompt: Form field: reported GI50 of CN(C)CCC(CCN(C)C)=NOC(=O)c1ccccc1
Response: > 100 µM (inactive)

Prompt: Repeat for the following molecule: CC(C)(C)OC(=O)N1CCCC1C(=O)NCCNc1ccc(NCCNC(=O)C2CCCN2C(=O)OC(C)(C)C)c2c1C(=O)c1ccccc1C2=O (stereo not given)
Response: 13 µM (inactive)
